These measurements were taken from PubChem BioAssay (NCI).

system: KM12 colon; test: NCI-60 one-dose screen, 48 h; details: 10 µM unless noted
About 83,000 compounds went through this panel and 20% of them were active in at least one assay; those are over-represented in the sample as a whole. Activity calls are given as the source filed them. The calls were made as follows: active = growth percent below 10; inactive = the rest.
Answer with one of the outcomes given here: 1 (yes) for active, 0 (no) for inactive

These recorded examples may help you get a feel for the data.
CC(C)[C@@H]1CC[C@]2(C(=O)NCCCCN=C(N)N)CC[C@]3(C)[C@H](CC[C@@H]4[C@@]5(C)CCC(=O)C(C)(C)[C@@H]5CC[C@]43C)[C@@H]12	0 (no)
CCOC(=O)Cc1cnn(C)c1NC(=O)c1ccc(Cl)cc1NC(C)=O	0 (no)
CN1CCN(Cc2ccc(NC(=O)c3cncc(C#Cc4cnc(N)c5cccnc45)c3)cc2C(F)(F)F)CC1	1 (yes)
OC(c1cc(-c2ccccc2)nc2ccc(Cl)cc12)C1CCCCN1 (stereo unspecified)	1 (yes)
COc1cccc2c1C(=O)c1c(O)c3c(c(O)c1C2=O)C[C@@](O)(/C(C)=N/NC(=O)c1ccc(Cl)cc1)C[C@@H]3OC1CC(N)C(O)C(C)O1 (stereo partly specified)	1 (yes)
Cc1nn(-c2ccccc2)c2nc(C)n(-c3ccc(Br)cc3)c(=O)c12	0 (no)

Query string: Record lookup: outcome of this test for CN(C)CCOc1ccc(-c2nc3ccc(-c4nc5ccc(N6CCN(C)CC6)cc5[nH]4)cc3[nH]2)cc1 ?
Result string: 0 (no)

Query string: Hello, I am checking results. What call was entered for COc1ccc(-c2c(C)noc2-c2ccc(O)cc2O)cc1 ?
Result string: 0 (no)

Query string: GET /call?item= CCN(C(=O)CN1CCN(c2cc3c(cc2F)c(=O)c(C(=O)O)cn3CC)CC1)c1nc(-c2ccccc2)cs1 returns the recorded outcome of this test.
Result string: 0 (no)

Query string: In this assay, the call recorded for CNC(=O)c1cc(Oc2ccc3nc(NC(=O)Nc4ccc(CN5CCOCC5)c(C(F)(F)F)c4)sc3c2)ccn1 was what?
Result string: 1 (yes)

Query string: Outcome? O=C(CCN1CCOCC1)Nc1ccc(Cn2nnc3c2C(=O)c2nnn(Cc4ccc(NC(=O)CCN5CCOCC5)cc4)c2C3=O)cc1
Result string: 0 (no)

Query string: Recorded test outcome, item CCCCCCCCCCCCCCCC[N+]1(CC)CCCC1
Result string: 1 (yes)

Query string: What outcome does the record of this test show for O=C1Nc2c(ccc(Cl)c2Cl)/C1=C/c1cc(Br)c(O)c(Br)c1 ?
Result string: 0 (no)

Query string: Short answer needed: outcome of this test for COC(=O)[C@@H]1CC[C@]2(C)[C@H](CC[C@@H]3O[C@@]32C)[C@@]1(C)CC(=O)c1ccoc1 ?
Result string: 0 (no)

Query string: So what was the verdict on COc1cnc2c(c1)C(=O)c1c-2n(CCCN2CCNCC2)c(=O)c2cc([N+](=O)[O-])ccc12 in this test?
Result string: 1 (yes)

Query string: Outcome logged for C=C1CCC2C3(C)COC(c4ccc(SC)cc4)OC3CCC2(C)C1C/C=C1/C(=O)OCC1O (stereo unspecified) in this assay:
Result string: 0 (no)

Query string: Please share the test call associated with CC(C)n1cc2c(N)ncnc2n1 .
Result string: 0 (no)

Query string: Which outcome was entered for the compound CCCCCCNC(=O)Oc1ccc(/C(=C(\C)c2ccccc2)c2ccc(OCCN(CC)CC)cc2)cc1 in this test?
Result string: 0 (no)

Query string: Called result for CC/C(Cc1ccccc1)=C(\c1ccc(OCCN2CCCC2)cc1)c1ccc(OC(C)=O)cc1
Result string: 0 (no)

Query string: Please indicate how the test categorized CCCCCCCCCCCCCCCC(=O)OCC1OC(n2cnc3c(=S)nc(N)[nH]c32)C(OC(=O)CCCCCCCCCCCCCCC)C1OC(=O)CCCCCCCCCCCCCCC (stereo unspecified) .
Result string: 0 (no)

Query string: Recorded test call requested for Cc1ccc(SCN2CCN(c3cccc(Cl)c3)CC2)cc1
Result string: 0 (no)

Query string: How was CCC(=O)Oc1ccc(/C(=C(\C)c2ccccc2)c2ccc(OCCN(CC)CC)cc2)cc1 classified in this test?
Result string: 0 (no)

###

Task for the reader: assign each of the following compounds its reported growth.
tested on: UO-31 renal; test: NCI-60 one-dose screen, 48 h (100 = growth as untreated, 0 = no growth, -100 = all killed); conditions: 10 µM unless noted
This is part of a sample that, as a whole, favours compounds with a hit. Of some 83,000 tested, about 20% had one in any assay. Activity calls are given as the source filed them. Rule for the calls: active = growth percent below 10; inactive = the rest.

In the examples that follow, each entry is paired with its recorded growth.
CC(C)C1=C[C@@]23CC[C@@H]4[C@](C)(CCC[C@@]4(C)C(=O)OCC#CCN4CCCC4)[C@H]2C[C@@H]1[C@H]1C(=O)OC(=O)[C@H]13	78.3% (inactive)
COc1cccc(/C=C2/C(=O)N(Cc3ccco3)SC2=S)c1OC	93.4% (inactive)

I'm hoping you can list growth for every compound here, please.
1. COC1=CC(=O)C(OC)=C(OC)C1=O
2. COc1ccc(CCN2CC=Cn3c2nc2ccccc2c3=O)cc1
3. COc1c(C2CC(=O)Nc3c2cnn3Cc2ccco2)cc2c(c1OC)OCO2 (stereo not drawn)
4. CCOC(=O)c1cnc2cc(Cl)c(F)cc2c1Nc1cccc(NS(C)(=O)=O)c1
5. CCCCCCCCCCCCN1CCCC(C)C1 (stereo not drawn)
6. O=C(Cn1cc(CN2C(=O)c3ccccc3S2(=O)=O)nn1)Nc1ccc([N+](=O)[O-])cc1Cl

Result string:
104% (inactive)
35.2% (inactive)
59.4% (inactive)
73.3% (inactive)
60.8% (inactive)
82.7% (inactive)

###

tested on: SF-295 CNS; experiment: NCI-60 one-dose screen, 48 h (100 = growth as untreated, 0 = no growth, -100 = all killed); details: 10 µM unless noted
Compounds without any hit were thinned out: in the full panel of roughly 83,000, 20% have a hit.
Exercise: for every item that follows, state its recorded growth.
Give bare numbers, in %.

Worked set:
Cn1cc(-c2csc(-c3cn(C)c4ncccc34)n2)c2ccccc21	9.79
O=S(=O)(Nc1ccc(Cl)cc1Cl)c1ccc(-c2cnc(C3CC3)o2)cc1	1.37
COc1ccc(-c2nc(Nc3cc(C)[nH]n3)c3ccccc3n2)cc1	48.8

Turning to the following compound.
Query string: Hello, I am looking for reported growth with SF-295 CNS for CC#CC#Cc1cccc(=O)o1 . Could you help?
Result string: 96.1

###

system: UACC-257 melanoma; assay: NCI-60 one-dose screen, 48 h (100 = growth as untreated, 0 = no growth, -100 = all killed); conditions: 10 µM unless noted
Compounds without any hit were thinned out: in the full panel of roughly 83,000, 20% have a hit.
PARAMETER MEASURED: growth (%)
Answers are plain numbers, in %.

CCCCOc1ccc(NC(=O)n2nc(NC(C)=O)c3cc(NC(C)=O)ccc32)cc1	112
CC/C=C\C[C@H](O)C/C=C1/C(=O)C=C[C@@H]1C/C=C\CCCC(=O)NC	-19

Parameters: items (list). Returns: growth for each item.
1. O=C(CCCN1CCOCC1)Nc1ccc(Cn2nnc3c2C(=O)c2nnn(Cc4ccc(NC(=O)CCCN5CCOCC5)cc4)c2C3=O)cc1
2. Nc1cc2ccncc2c2ccccc12
3. N=S(=O)(NC(=O)c1ccc(Cl)cc1Cl)c1ccc(Br)s1 (stereo not drawn)
4. Cc1cc(OCc2ccc(C(F)(F)F)cc2)c2c(c1)C(=O)C=C(NCCN1CCCC1)C2=O

Result string:
1: -88; 2: 103; 3: 98.2; 4: -92.4

###

tested on: TK-10 renal; assay: NCI-60 one-dose screen, 48 h (100 = growth as untreated, 0 = no growth, -100 = all killed); conditions: 10 µM unless noted
Compounds without any hit were thinned out: in the full panel of roughly 83,000, 20% have a hit.
PARAMETER MEASURED: growth (%)
Numbers only, in %.

Answered cases to consult:
COc1ccc(/C=N\NC(=O)CN2CCN(c3cc4c(cc3F)c(=O)c(C(=O)N/N=C/c3ccc(OC)cc3)cn4C3CC3)CC2)cc1	100
CN(C)c1ccc(C2Nc3ccccc3-n3cccc32)cc1 (stereo not drawn)	55.7

Note: attention shifts to another entry.
Query string: Endpoint output: growth of CCN(CC)CCC(=O)Nc1ccc(Cn2nnc3c2C(=O)c2nnn(Cc4ccc(NC(=O)CCN(CC)CC)cc4)c2C3=O)cc1 . Value?
Result string: 122

###

system: NCI-H322M lung; assay: NCI-60 one-dose screen, 48 h (100 = growth as untreated, 0 = no growth, -100 = all killed); details: 10 µM unless noted
This is part of a sample that, as a whole, favours compounds with a hit. Of some 83,000 tested, about 20% had one in any assay.
Answer each item with its documented growth.
Answers are plain numbers, in %.

Examples with answers:
COc1ccc2nc3cc(Cl)ccc3c(N3CCN(c4nccc(Nc5ccccc5)n4)CC3)c2c1	88.3
Nc1nc2c(c3ncccc13)C(c1cccc(Br)c1)Cc1ncccc1-2 (stereo not drawn)	41.6
CCOC(=O)C(=Cc1ccccc1F)C(=O)OCC	94
COc1ccc(C2CC(=O)Nc3c2c(C)nn3-c2nc3ccccc3[nH]2)cc1 (stereo not drawn)	53.9
COc1ccc(C/C(C)=C(\c2ccc(OCCN3CCCCCC3)cc2)c2ccc(OC(=O)C3CCCCC3)cc2)cc1	73.5
CC/C(Cc1ccccc1)=C(/c1ccc(O)cc1)c1ccc(OCCN2CCCC2)cc1	-18
c1ccc2sc(SCCCn3ccnc3)nc2c1	98.7
CN(C)CCCC(=O)Nc1ccc(Cn2nnc3c2C(=O)c2nnn(Cc4ccc(NC(=O)CCCN(C)C)cc4)c2C3=O)cc1	38.5

# return growth for each item in the list
1. Cl/C(=N\Nc1ccccc1)c1ccccc1
2. COC(/C=C/c1ccc([N+](=O)[O-])cc1)OC
3. O=C(CO[N+](=O)[O-])Nc1ccc(C(=O)/C=C/c2ccc3c(c2)OCO3)cc1
4. COc1cccc(-c2nc3sccn3c2-c2ccnc(NCCCNS(=O)(=O)c3ccc(Cl)cc3)c2)c1
5. Oc1ccc2c(=S)cc(-c3ccc(Br)cc3)oc2c1O

Result string:
1. 75.4
2. 101
3. 108
4. 74.4
5. 10.5
